# test-target: T1, human BACE1 ECD
# T1 construct: analyte of the Octet assay (200 nM) and enzyme of the first short substrate assay; also called human BACE1 extracellular domain
# T1 sequence (single chain, as listed by the source limits assumed): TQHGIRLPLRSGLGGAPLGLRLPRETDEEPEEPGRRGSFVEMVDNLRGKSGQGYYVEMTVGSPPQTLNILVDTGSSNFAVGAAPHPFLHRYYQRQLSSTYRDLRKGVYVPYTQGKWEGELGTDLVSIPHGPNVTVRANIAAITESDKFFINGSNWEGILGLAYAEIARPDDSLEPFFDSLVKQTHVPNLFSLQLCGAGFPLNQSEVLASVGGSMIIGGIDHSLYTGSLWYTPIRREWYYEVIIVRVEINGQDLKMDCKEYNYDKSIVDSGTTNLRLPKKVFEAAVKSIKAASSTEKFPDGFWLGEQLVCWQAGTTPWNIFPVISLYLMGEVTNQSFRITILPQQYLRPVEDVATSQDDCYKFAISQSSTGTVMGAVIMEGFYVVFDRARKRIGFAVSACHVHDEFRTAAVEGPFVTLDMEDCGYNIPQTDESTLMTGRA
# protocol-text: Octet, pH 5.0, second run

# binder, Kd (nM)
rows = [
    ("5887 (antibody, V domains shown, anti-BACE1 IgG) VH: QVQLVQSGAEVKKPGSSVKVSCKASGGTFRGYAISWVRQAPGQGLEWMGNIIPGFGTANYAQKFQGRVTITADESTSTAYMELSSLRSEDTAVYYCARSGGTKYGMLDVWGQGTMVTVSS VL: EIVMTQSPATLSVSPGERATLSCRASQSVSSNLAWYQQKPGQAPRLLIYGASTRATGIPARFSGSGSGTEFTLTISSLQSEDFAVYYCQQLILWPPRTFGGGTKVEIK", 1.4),
]
